The reported measurements were obtained from ChEMBL document CHEMBL1828538.

Target: 5-hydroxytryptamine receptor 1A (Homo sapiens, UniProt P08908)
Sequence (P08908 whole entry): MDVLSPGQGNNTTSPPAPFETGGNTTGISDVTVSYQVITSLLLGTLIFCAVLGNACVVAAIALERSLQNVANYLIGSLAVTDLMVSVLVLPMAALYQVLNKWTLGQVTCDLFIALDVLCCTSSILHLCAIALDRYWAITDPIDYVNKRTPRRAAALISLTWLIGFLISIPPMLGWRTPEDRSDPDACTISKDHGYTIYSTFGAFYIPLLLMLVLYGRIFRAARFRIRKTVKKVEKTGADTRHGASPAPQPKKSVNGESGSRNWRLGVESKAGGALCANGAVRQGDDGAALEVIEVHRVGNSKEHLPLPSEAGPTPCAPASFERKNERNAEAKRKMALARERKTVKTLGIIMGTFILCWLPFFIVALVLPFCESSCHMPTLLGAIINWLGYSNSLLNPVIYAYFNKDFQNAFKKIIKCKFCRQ
valueType: Ki (nM)
Numbers only, in nM.

Request: // lookup Ki for COc1cc2c(cc1OC)CN(CCCCn1cc(-c3ccc(F)cc3)c3ccccc31)CC2
Result: 1510

* * *

biological target: D(1A) dopamine receptor (Homo sapiens); experiment: Displacement of [3H]SCH-23390 from human D1 receptor in cell-based assay
Sequence (P21728 whole entry): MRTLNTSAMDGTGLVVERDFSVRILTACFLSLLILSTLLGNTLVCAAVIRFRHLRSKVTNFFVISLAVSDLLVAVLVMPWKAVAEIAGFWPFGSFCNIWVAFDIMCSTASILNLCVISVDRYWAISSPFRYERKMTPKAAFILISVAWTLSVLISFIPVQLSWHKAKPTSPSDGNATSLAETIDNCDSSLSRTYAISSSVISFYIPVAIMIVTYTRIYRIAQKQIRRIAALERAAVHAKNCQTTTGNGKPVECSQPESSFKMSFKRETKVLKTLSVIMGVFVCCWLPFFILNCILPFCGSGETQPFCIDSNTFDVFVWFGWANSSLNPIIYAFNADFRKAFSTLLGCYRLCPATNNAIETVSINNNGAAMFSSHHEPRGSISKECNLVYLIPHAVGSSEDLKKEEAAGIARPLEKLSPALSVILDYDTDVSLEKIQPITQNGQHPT
pKi: −log10 of the molar value.
valueType: pKi

Request: Fill blank: measured pKi of the compound COc1cc2c(cc1OC)CN(CCCCn1cc(-c3ccc(F)cc3)c3ccccc31)CC2 is ____.
Result: < 5.00

* * *

target: Sigma non-opioid intracellular receptor 1 (Rattus norvegicus, UniProt Q9R0C9); assay: Displacement of (-)-[3H]pentazocine from sigma 1 receptor in rat brain membrane after 120 mins
Sequence (Q9R0C9 whole entry): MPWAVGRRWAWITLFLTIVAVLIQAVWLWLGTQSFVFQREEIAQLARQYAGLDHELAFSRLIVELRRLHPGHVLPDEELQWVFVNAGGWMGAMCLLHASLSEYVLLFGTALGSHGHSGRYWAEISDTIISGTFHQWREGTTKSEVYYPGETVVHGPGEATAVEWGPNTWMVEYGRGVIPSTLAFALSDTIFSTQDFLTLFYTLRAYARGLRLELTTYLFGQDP
valueType: pKi
Numbers only, as −log10 of the molar value.

cpdSmiles | pKi
COc1cc2c(cc1OC)CN(CCCCn1ccc3ccccc31)CC2 | 6.85
Fc1ccc(N2CCN(CCCCn3ccc4ccccc43)CC2)cc1 | 7.15
CC(=O)c1ccc2c(ccn2CCCCN2CCN(C3CCCCC3)CC2)c1 | 8.27
c1ccc(-c2cn(CCCCN3CCN(C4CCCCC4)CC3)c3ccccc23)cc1 | 7.03
CC(=O)c1ccc2c(ccn2CCCCN2CCN(c3ccc(F)cc3)CC2)c1 | 8.67

Please look at the following compound next.
Request: Please provide the recorded pKi for Fc1ccc(N2CCN(CCCCn3cc(-c4ccccc4)c4ccccc43)CC2)cc1 , tested on Sigma non-opioid intracellular receptor 1 (Rattus norvegicus, UniProt Q9R0C9).
Result: 6.65

* * *

species on record: Rattus norvegicus; assay: Selectivity ratio of Ki for sigma 1 receptor in rat brain membrane to sigma 2 receptor in rat brain membrane; assay type: cell membranes
Binned Ratio Ki; ranges: one: < 3; two: ≥ 3 and < 10; three: ≥ 10

cpdSmiles | answerLabel
Fc1ccc(N2CCN(CCCCn3cc(-c4ccccc4)c4ccccc43)CC2)cc1 | three

Request: Which bin should I file c1ccc(-c2cn(CCCCN3CCN(C4CCCCC4)CC3)c3ccccc23)cc1 under?
Result: two

Request: Band assignment needed for CC(=O)c1ccc2c(ccn2CCCCN2CCN(c3ccc(F)cc3)CC2)c1 please.
Result: one

Request: Assign a category based on measured Ratio Ki for COc1cc2c(cc1OC)CN(CCCCn1cc(-c3ccccc3)c3ccccc31)CC2 and give only the class name.
Result: three

* * *

target: UniProtKB P28223
Sequence (P28223 whole entry): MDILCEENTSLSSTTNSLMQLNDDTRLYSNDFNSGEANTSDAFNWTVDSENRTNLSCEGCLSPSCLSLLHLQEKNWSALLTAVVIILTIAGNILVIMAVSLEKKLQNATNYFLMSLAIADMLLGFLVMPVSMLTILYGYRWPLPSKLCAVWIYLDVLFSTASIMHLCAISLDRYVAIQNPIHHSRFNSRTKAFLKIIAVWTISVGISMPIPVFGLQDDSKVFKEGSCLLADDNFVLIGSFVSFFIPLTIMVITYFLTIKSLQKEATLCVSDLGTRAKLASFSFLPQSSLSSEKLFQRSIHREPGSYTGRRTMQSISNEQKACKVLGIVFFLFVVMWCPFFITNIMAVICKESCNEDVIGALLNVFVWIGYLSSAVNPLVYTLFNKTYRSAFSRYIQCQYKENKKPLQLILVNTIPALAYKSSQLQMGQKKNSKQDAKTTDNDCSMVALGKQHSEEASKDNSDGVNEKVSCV
valueType: Ki (µM)
One number for each entry, in µM.

Request: Enter reported Ki observed with UniProtKB P28223 for COc1cc2c(cc1OC)CN(CCCCn1cc(-c3ccc(F)cc3)c3ccccc31)CC2
Result: 1.27

* * *

I'd be grateful if you could share measured Ki for these entries.
assay: Displacement of [3H]di-o-tolylguanidine from sigma 2 receptor in rat brain membrane after 120 mins; type: cell membranes
One number for each entry, in nM.

Some molecules with known Ki results, for comparison:
cpdSmiles | valueType | reading
COc1cc2c(cc1OC)CN(CCCCn1cc(-c3ccccc3)c3ccccc31)CC2 | Ki | 46.3
COc1cc2c(cc1OC)CN(CCCCn1cc(-c3ccoc3)c3ccccc31)CC2 | Ki | 12
c1ccc2c(c1)c(-c1ccoc1)cn2CCCCN1CCN(C2CCCCC2)CC1 | Ki | 10.1

Answer for every listed entry: what is its Ki? The entries follow.
1. c1ccc(-c2cn(CCCCN3CCN(C4CCCCC4)CC3)c3ccccc23)cc1
2. CC(=O)c1ccc2c(ccn2CCCCN2CCN(C3CCCCC3)CC2)c1
3. COc1cc2c(cc1OC)CN(CCCCn1ccc3cc(C(C)=O)ccc31)CC2
4. Fc1ccc(N2CCN(CCCCn3cc(-c4ccccc4)c4ccccc43)CC2)cc1
5. Fc1ccc(N2CCN(CCCCn3cc(-c4ccoc4)c4ccccc43)CC2)cc1
6. CC(=O)c1ccc2c(ccn2CCCCN2CCN(c3ccc(F)cc3)CC2)c1

Result:
[12.3, 2.31, 1.42, 9.96, 157, 3.3]

* * *

molecular target: Sigma non-opioid intracellular receptor 1 (Rattus norvegicus, UniProt Q9R0C9); experiment: Displacement of (-)-[3H]pentazocine from sigma 1 receptor in rat brain membrane after 120 mins
Assign Ki to each entry below.
Numbers only, in nM.

cpdSmiles | experimentalSystem | Ki, nM
Fc1ccc(N2CCN(CCCCn3cc(-c4ccoc4)c4ccccc43)CC2)cc1 | Sigma non-opioid intracellular receptor 1 (Rattus norvegicus, UniProt Q9R0C9) | 279
COc1cc2c(cc1OC)CN(CCCCn1ccc3cc(C(C)=O)ccc31)CC2 | Sigma non-opioid intracellular receptor 1 (Rattus norvegicus, UniProt Q9R0C9) | 14.6
COc1cc2c(cc1OC)CN(CCCCn1cc(-c3ccccc3)c3ccccc31)CC2 | Sigma non-opioid intracellular receptor 1 (Rattus norvegicus, UniProt Q9R0C9) | 714
COc1cc2c(cc1OC)CN(CCCCn1cc(-c3ccoc3)c3ccccc31)CC2 | Sigma non-opioid intracellular receptor 1 (Rattus norvegicus, UniProt Q9R0C9) | 614

Request: Param item = c1ccc2c(c1)c(-c1ccoc1)cn2CCCCN1CCN(C2CCCCC2)CC1 ; retrieve measured Ki.
Result: 34.5

* * *

target: Sodium-dependent serotonin transporter (Homo sapiens)
Sequence (P31645 whole entry): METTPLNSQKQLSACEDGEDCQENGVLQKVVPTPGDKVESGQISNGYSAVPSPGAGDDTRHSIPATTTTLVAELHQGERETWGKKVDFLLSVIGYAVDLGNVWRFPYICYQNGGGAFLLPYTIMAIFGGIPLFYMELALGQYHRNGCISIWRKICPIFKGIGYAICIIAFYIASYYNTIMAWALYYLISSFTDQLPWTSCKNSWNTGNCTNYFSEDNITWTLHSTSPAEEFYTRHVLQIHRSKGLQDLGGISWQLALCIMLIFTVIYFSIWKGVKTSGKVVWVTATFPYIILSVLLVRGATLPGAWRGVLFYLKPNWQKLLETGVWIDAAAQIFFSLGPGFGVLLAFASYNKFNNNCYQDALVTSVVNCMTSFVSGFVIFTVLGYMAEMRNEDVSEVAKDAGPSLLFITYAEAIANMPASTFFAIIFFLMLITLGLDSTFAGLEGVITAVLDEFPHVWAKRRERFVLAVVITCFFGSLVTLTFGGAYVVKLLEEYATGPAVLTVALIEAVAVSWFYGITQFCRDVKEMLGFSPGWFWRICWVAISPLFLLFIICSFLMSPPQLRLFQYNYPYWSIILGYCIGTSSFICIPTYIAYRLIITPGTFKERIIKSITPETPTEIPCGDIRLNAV
valueType: pKi
Numbers only, as −log10 of the molar value.

Request: Return reported pKi; argument: COc1cc2c(cc1OC)CN(CCCCn1cc(-c3ccc(F)cc3)c3ccccc31)CC2
Result: 6.53

* * *

biological target: D(2) dopamine receptor (Homo sapiens, UniProt P14416); assay: Displacement of [3H]YM-09151-2 from human D2 receptor expressed in CHO cells
Sequence (P14416 whole entry): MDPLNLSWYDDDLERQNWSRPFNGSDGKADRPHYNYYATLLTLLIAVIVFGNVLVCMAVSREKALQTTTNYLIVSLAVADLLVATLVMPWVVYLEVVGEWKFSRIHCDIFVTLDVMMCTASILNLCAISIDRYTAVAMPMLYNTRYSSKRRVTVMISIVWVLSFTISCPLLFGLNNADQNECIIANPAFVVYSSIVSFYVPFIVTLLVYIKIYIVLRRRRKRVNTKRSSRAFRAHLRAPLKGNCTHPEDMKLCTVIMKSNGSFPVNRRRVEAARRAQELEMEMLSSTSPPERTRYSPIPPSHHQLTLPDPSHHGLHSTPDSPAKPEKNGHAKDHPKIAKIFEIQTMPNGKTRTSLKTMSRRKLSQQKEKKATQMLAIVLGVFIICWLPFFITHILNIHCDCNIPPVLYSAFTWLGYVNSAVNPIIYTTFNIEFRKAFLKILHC
valueType: pKi
Answers are plain numbers, as −log10 of the molar value.

Request: Given the compound COc1cc2c(cc1OC)CN(CCCCn1cc(-c3ccc(F)cc3)c3ccccc31)CC2 , what is its reported pKi?
Result: 6.06

* * *

organism: Rattus norvegicus; test: Selectivity ratio of Ki for sigma 1 receptor in rat brain membrane to sigma 2 receptor in rat brain membrane; format: cell membranes
valueType: Ratio Ki
One number for each entry.

cpdSmiles | Ratio Ki
COc1cc2c(cc1OC)CN(CCCCn1ccc3cc(C(C)=O)ccc31)CC2 | 10.2
CC(=O)c1ccc2c(ccn2CCCCN2CCN(C3CCCCC3)CC2)c1 | 2.3
Fc1ccc(N2CCN(CCCCn3cc(-c4ccoc4)c4ccccc43)CC2)cc1 | 1.8

Batch: Ratio Ki for all items listed.
1. COc1cc2c(cc1OC)CN(CCCCn1cc(-c3ccoc3)c3ccccc31)CC2
2. Fc1ccc(N2CCN(CCCCn3ccc4ccccc43)CC2)cc1
3. Fc1ccc(-c2cn(CCCCN3CCN(C4CCCCC4)CC3)c3ccccc23)cc1

Result:
[51.1, 5.4, 4]

Request: Quick one: Ratio Ki for c1ccc2c(c1)c(-c1ccoc1)cn2CCCCN1CCN(C2CCCCC2)CC1 ?
Result: 3.4
